B1: RIT1 (parent)
chain: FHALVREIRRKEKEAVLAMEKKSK

variants of: B1; experiment: protein stability index of a GFP-peptide fusion (GPS, HEK-293T) (PSI 1-6); higher = more stable; conditions: c terminus: a fixed tail appended;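 further: lentivirally expressed fusions sorted by FACS into six bins by GFP to DsRed ratio, PSI derived from sequencing read proportions per bin multiplied by bin number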
Below, each entry is listed alongside its reported protein stability index.
value.kind: protein stability index

[[record]]
variant_label = "F1D"
measured_value = 4.03

[[record]]
variant_label = "E12C"
measured_value = 1.81

[[record]]
variant_label = "A3Q"
measured_value = 2.45

[[record]]
variant_label = "K22A"
measured_value = 2.4

[[record]]
variant_label = "L17V"
measured_value = 1.47

[[record]]
variant_label = "E14W"
measured_value = 2.42


These entries and their values trace back to the supplement of paper PMC10567573.
